target: human CCR8 (human, UniProt P51685 1-355); assay: cell-based or functional assay
Sequence (P51685 whole entry): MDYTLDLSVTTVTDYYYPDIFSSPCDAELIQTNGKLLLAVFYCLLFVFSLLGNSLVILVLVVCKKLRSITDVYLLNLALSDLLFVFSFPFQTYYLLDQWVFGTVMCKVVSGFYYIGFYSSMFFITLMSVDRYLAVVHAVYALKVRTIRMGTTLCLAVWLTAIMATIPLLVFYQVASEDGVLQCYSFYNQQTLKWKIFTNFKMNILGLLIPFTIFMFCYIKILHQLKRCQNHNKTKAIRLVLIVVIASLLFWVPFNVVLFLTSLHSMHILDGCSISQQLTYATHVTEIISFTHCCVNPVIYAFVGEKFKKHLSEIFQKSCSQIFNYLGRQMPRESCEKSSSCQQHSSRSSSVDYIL

{"binder": "h10A11 (IGKV2-28/IGHV3-73) (antibody, V domains shown) VH: EVQLVESGGGLVQPGGSLKLSCAASGFAFNTYALYWVRQASGKGLEWVGRIRSKSNNYATYYADSVKDRFTISRDDSKNTAYLQMNSLKTEDTAVYYCTRARFYYSDYGYAMDYWGQGTLVTVSS VL: DIVMTQSPLSLPVTPGEPASISCRSSKSLLHSNGNTYLYWYLQKPGQSPQLLIYRMSNLASGVPDRFSGSGSGTDFTLKISRVEAEDVGVYYCMQHLEYPLTFGQGTKVEIKR", "IC50 (nM), Ca2+ influx by 200 nM hCCL1": 0.2}
{"binder": "h10A11 (IGKV1-39/IGHV3-15 T94R) (antibody, V domains shown) VH: EVQLVESGGALVKPGGSLRLSCAASGFTFSTYALYWVRQAPGKGLEWVGRIRSKSNNYATYYADSVKDRFTISRDDSKNTLYLQMNSLKTEDTAVYYCTRARFYYSDYGYAMDYWGQGTLVTVSS VL: DIQMTQSPSSLSASVGDRVTITCRSSKSLLHSNGNTYLYWYQQKPGKAPKLLIYRMSNLASGVPSRFSGSGSGTDFTLTISSLQPEDFATYYCMQHLEYPLTFGQGTKLEIKR", "IC50 (nM), Ca2+ influx by 200 nM hCCL1": 0.2}
{"binder": "h10A11 (IGKV2-40/IGHV3-73) (antibody, V domains shown) VH: EVQLVESGGGLVQPGGSLKLSCAASGFAFNTYALYWVRQASGKGLEWVGRIRSKSNNYATYYADSVKDRFTISRDDSKNTAYLQMNSLKTEDTAVYYCTRARFYYSDYGYAMDYWGQGTLVTVSS VL: DIVMTQTPLSLPVTPGEPASISCRSSKSLLHSNGNTYLYWYLQKPGQSPQLLIYRMSNLASGVPDRFSGSGSGTDFTLKISRVEAEDVGVYYCMQHLEYPLTFGQGTKLEIKR", "IC50 (nM), Ca2+ influx by 200 nM hCCL1": 0.21}
{"binder": "h10A11 (IGKV1-16/IGHV3-15 T94R) (antibody, V domains shown) VH: EVQLVESGGALVKPGGSLRLSCAASGFTFSTYALYWVRQAPGKGLEWVGRIRSKSNNYATYYADSVKDRFTISRDDSKNTLYLQMNSLKTEDTAVYYCTRARFYYSDYGYAMDYWGQGTLVTVSS VL: DIQMTQSPSSLSASVGDRVTITCRSSKSLLHSNGNTYLYWFQQKPGKAPKSLIYRMSNLASGVPSRFSGSGSGTDFTLTISSLQPEDFATYYCMQHLEYPLTFGQGTKLEIKR", "IC50 (nM), Ca2+ influx by 200 nM hCCL1": 0.7}
{"binder": "h10A11 (IGKV1-39/IGHV3-73) (antibody, V domains shown) VH: EVQLVESGGGLVQPGGSLKLSCAASGFAFNTYALYWVRQASGKGLEWVGRIRSKSNNYATYYADSVKDRFTISRDDSKNTAYLQMNSLKTEDTAVYYCTRARFYYSDYGYAMDYWGQGTLVTVSS VL: DIQMTQSPSSLSASVGDRVTITCRSSKSLLHSNGNTYLYWYQQKPGKAPKLLIYRMSNLASGVPSRFSGSGSGTDFTLTISSLQPEDFATYYCMQHLEYPLTFGQGTKLEIKR", "IC50 (nM), Ca2+ influx by 200 nM hCCL1": 0.16}
